Test system: OVCAR4
Assay Explanation: MTT cytotoxicity (IC50), OVCAR4
Type: cell-based
Conditions Used: Homo sapiens, OVCAR-4, 72 h, read-out: IN Vitro IC50 (nm) OVCAR4

{"Compound": "CCC(=O)O[C@H]1C(=O)[C@@]2(C)C([C@H](OC(=O)c3ccccc3)[C@]3(O)C[C@H](OC(=O)[C@H](O)[C@@H](NC(=O)OC4CCCC4)c4cccs4)C(C)=C1C3(C)C)[C@]1(OC(C)=O)CO[C@@H]1C[C@@H]2O (some centres unmarked)", "IC50 [nM]": 1}
{"Compound": "CC(=O)O[C@H]1C(=O)[C@@]2(C)[C@H]([C@H](OC(=O)c3ccccc3)[C@]3(O)C[C@H](OC(=O)[C@H](O)[C@@H](NC(=O)c4ccccc4)c4ccccc4)C(C)=C1C3(C)C)[C@]1(OC(C)=O)CO[C@@H]1C[C@@H]2O [Paclitaxel, paclitaxel, reference compound]", "IC50 [nM]": 2.9}
{"Compound": "CC(=O)O[C@@]12CO[C@@H]1C[C@H](O)[C@@]1(C)C(=O)[C@H](OC(=O)C3CC3)C3=C(C)[C@@H](OC(=O)[C@H](O)[C@@H](NC(=O)OC4CCC4)c4cccs4)C[C@@](O)([C@@H](OC(=O)c4ccccc4)C12)C3(C)C (some centres unmarked)", "IC50 [nM]": 1.1}
{"Compound": "CC(=O)O[C@@]12CO[C@@H]1C[C@H](O)[C@@]1(C)C(=O)[C@H](O)C3=C(C)[C@@H](OC(=O)[C@H](O)[C@@H](NC(=O)OC(C)(C)C)c4ccccc4)C[C@@](O)([C@@H](OC(=O)c4ccccc4)[C@H]21)C3(C)C [Docetaxel, docetaxel, reference compound]", "IC50 [nM]": 1.4}
{"Compound": "CCC(=O)O[C@H]1C(=O)[C@@]2(C)C([C@H](OC(=O)c3ccccc3)[C@]3(O)C[C@H](OC(=O)[C@H](O)[C@@H](NC(=O)OC4CCC4)c4cccs4)C(C)=C1C3(C)C)[C@]1(OC(C)=O)CO[C@@H]1C[C@@H]2O (some centres unmarked)", "IC50 [nM]": 2.7}

----------
Test system: PANC-1
Assay Explanation: MTT cytotoxicity (IC50), PANC-1
Type: cell-based
Conditions Used: Homo sapiens, 72 h, read-out: IN Vitro IC50 (nm) Panc
Method: Compound 17932 was tested in four of these cell lines, while the remaining compounds were tested in all of these cell lines. […] Plates were incubated for 72 h and cell viability was determined by adding 50 μL of warm TCM containing 5 mg/mL MTT (3-[4,5-dimethylthiazol-2-yl]-2,5-diphenyltetrazolium bromide) to each well and incubating for 1 h at 37° C. Plates were processed and the absorbances of the resulting solutions were measured by a plate reader at 570 nm. […]
pIC50: −log10 of the molar value.

{"Compound": "CC(=O)O[C@H]1C(=O)[C@@]2(C)[C@H]([C@H](OC(=O)c3ccccc3)[C@]3(O)C[C@H](OC(=O)[C@H](O)[C@@H](NC(=O)c4ccccc4)c4ccccc4)C(C)=C1C3(C)C)[C@]1(OC(C)=O)CO[C@@H]1C[C@@H]2O [Paclitaxel, paclitaxel, reference compound]", "Measured Target": "PANC-1", "pIC50": 8.39}
{"Compound": "CCC(=O)O[C@H]1C(=O)[C@@]2(C)C([C@H](OC(=O)c3ccccc3)[C@]3(O)C[C@H](OC(=O)[C@H](O)[C@@H](NC(=O)OC4CCC4)c4cccs4)C(C)=C1C3(C)C)[C@]1(OC(C)=O)CO[C@@H]1C[C@@H]2O (stereo partly drawn)", "Measured Target": "PANC-1", "pIC50": 8.92}
{"Compound": "CC(=O)O[C@@]12CO[C@@H]1C[C@H](O)[C@@]1(C)C(=O)[C@H](OC(=O)C3CC3)C3=C(C)[C@@H](OC(=O)[C@H](O)[C@@H](NC(=O)OC4CCC4)c4cccs4)C[C@@](O)([C@@H](OC(=O)c4ccccc4)C12)C3(C)C (stereo partly drawn)", "Measured Target": "PANC-1", "pIC50": 8.92}
{"Compound": "CC(=O)O[C@@]12CO[C@@H]1C[C@H](O)[C@@]1(C)C(=O)[C@H](OC(=O)C3CC3)C3=C(C)[C@@H](OC(=O)[C@H](O)[C@@H](NC(=O)OC4CCCC4)c4cccs4)C[C@@](O)([C@@H](OC(=O)c4ccccc4)C12)C3(C)C (stereo partly drawn)", "Measured Target": "PANC-1", "pIC50": 8.92}
{"Compound": "CCC(=O)O[C@H]1C(=O)[C@@]2(C)C([C@H](OC(=O)c3ccccc3)[C@]3(O)C[C@H](OC(=O)[C@H](O)[C@@H](NC(=O)OC4CCCC4)c4cccs4)C(C)=C1C3(C)C)[C@]1(OC(C)=O)CO[C@@H]1C[C@@H]2O (stereo partly drawn)", "Measured Target": "PANC-1", "pIC50": 9.30}
{"Compound": "CC(=O)O[C@@]12CO[C@@H]1C[C@H](O)[C@@]1(C)C(=O)[C@H](O)C3=C(C)[C@@H](OC(=O)[C@H](O)[C@@H](NC(=O)OC(C)(C)C)c4ccccc4)C[C@@](O)([C@@H](OC(=O)c4ccccc4)[C@H]21)C3(C)C [Docetaxel, docetaxel, reference compound]", "Measured Target": "PANC-1", "pIC50": 8.72}

----------
Test system: TK-10
Assay Explanation: MTT cytotoxicity (IC50), TK-10
Format: cell-based
Conditions Used: Homo sapiens, 72 h, read-out: IN Vitro IC50 (nm) TK10
Quantity Measured: IC50 (nM)

{"Compound": "CCC(=O)O[C@H]1C(=O)[C@@]2(C)C([C@H](OC(=O)c3ccccc3)[C@]3(O)C[C@H](OC(=O)[C@H](O)[C@@H](NC(=O)OC4CCCC4)c4cccs4)C(C)=C1C3(C)C)[C@]1(OC(C)=O)CO[C@@H]1C[C@@H]2O (some centres unmarked)", "Quantity Measured": "IC50", "Units Label": "nM", "Reported Result": 0.3}
{"Compound": "CC(=O)O[C@H]1C(=O)[C@@]2(C)[C@H]([C@H](OC(=O)c3ccccc3)[C@]3(O)C[C@H](OC(=O)[C@H](O)[C@@H](NC(=O)c4ccccc4)c4ccccc4)C(C)=C1C3(C)C)[C@]1(OC(C)=O)CO[C@@H]1C[C@@H]2O [Paclitaxel, paclitaxel, reference compound]", "Quantity Measured": "IC50", "Units Label": "nM", "Reported Result": 4.8}
{"Compound": "CCC(=O)O[C@H]1C(=O)[C@@]2(C)C([C@H](OC(=O)c3ccccc3)[C@]3(O)C[C@H](OC(=O)[C@H](O)[C@@H](NC(=O)OC4CCC4)c4cccs4)C(C)=C1C3(C)C)[C@]1(OC(C)=O)CO[C@@H]1C[C@@H]2O (some centres unmarked)", "Quantity Measured": "IC50", "Units Label": "nM", "Reported Result": 0.4}
{"Compound": "CC(=O)O[C@@]12CO[C@@H]1C[C@H](O)[C@@]1(C)C(=O)[C@H](OC(=O)C3CC3)C3=C(C)[C@@H](OC(=O)[C@H](O)[C@@H](NC(=O)OC4CCC4)c4cccs4)C[C@@](O)([C@@H](OC(=O)c4ccccc4)C12)C3(C)C (some centres unmarked)", "Quantity Measured": "IC50", "Units Label": "nM", "Reported Result": 0.5}
{"Compound": "CC(=O)O[C@@]12CO[C@@H]1C[C@H](O)[C@@]1(C)C(=O)[C@H](O)C3=C(C)[C@@H](OC(=O)[C@H](O)[C@@H](NC(=O)OC(C)(C)C)c4ccccc4)C[C@@](O)([C@@H](OC(=O)c4ccccc4)[C@H]21)C3(C)C [Docetaxel, docetaxel, reference compound]", "Quantity Measured": "IC50", "Units Label": "nM", "Reported Result": 1.4}
